Collected t½ values appear next to each entry.
- targetOrSystem: T1, human CXCR4-enriched lipoparticles (LEV101, Integral Molecular) (human, UniProt P61073 1-352)
- T1 construct: Bought reagent; CXCR4 held in lipoparticles captured by biotinylated WGA on an SA chip; also called Lipoparticles containing CXCR4 proteins
- T1 sequence (P61073 whole entry): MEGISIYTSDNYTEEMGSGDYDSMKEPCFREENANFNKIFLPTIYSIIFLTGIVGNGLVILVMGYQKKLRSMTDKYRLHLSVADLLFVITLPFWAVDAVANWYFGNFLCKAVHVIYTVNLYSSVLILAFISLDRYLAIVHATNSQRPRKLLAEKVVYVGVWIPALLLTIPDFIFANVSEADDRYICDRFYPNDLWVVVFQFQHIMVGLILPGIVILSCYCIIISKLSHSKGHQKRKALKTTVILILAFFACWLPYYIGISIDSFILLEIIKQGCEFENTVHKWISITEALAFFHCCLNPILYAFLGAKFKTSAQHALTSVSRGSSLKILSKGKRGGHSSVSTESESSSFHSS
- experiment: biosensor kinetic titration, Fab over captured human CXCR4 lipoparticles
Report only the number, with the unit min understood.

In the examples that follow, each entry is paired with its recorded t½.
binder	reportedProperty	scaleUnit	number
h3G10.2.37 VH / h3G10.A58B VL Fab (Fab, V domains shown, Tested as Fab) VH: EVQLVESGGGLVQPGGSLRLSCAASGFTFSDYYMSWVRQAPGKGLEWVGFIRHKANFYTREYSTSVKGRFTISRDDSKNSLYLQMNSLKTEDTAVYYCARDLPGFAYWGQGTLVTVSS VL: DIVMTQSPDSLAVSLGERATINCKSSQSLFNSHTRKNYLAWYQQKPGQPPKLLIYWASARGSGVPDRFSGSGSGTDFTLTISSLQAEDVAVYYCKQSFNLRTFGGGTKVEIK	t½	min	25.7
h3G10.A57 VH / h3G10.2.72 VL Fab (Fab, V domains shown, Tested as Fab) VH: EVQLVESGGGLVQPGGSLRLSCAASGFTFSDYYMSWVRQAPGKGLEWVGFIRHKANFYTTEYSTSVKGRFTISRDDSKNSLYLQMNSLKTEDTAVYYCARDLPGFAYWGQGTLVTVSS VL: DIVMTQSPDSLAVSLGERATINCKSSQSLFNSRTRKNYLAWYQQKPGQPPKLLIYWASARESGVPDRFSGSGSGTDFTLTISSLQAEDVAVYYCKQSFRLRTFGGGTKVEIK	t½	min	9

Shifting focus to the binder that follows.
Reported t½ for h3G10 VH / h3G10 VL Fab (Fab, V domains shown, Tested as Fab; also called h3G10 Fab) VH: EVQLVESGGGLVQPGGSLRLSCAASGFTFSDYYMSWVRQAPGKGLEWVGFIRHKANGYTTEYSTSVKGRFTISRDDSKNSLYLQMNSLKTEDTAVYYCARDLPGFAYWGQGTLVTVSS VL: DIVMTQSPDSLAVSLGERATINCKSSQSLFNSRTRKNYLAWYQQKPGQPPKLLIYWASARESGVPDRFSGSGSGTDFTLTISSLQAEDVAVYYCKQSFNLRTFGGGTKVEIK was 3.9
